Organism: Rattus norvegicus
experiment: DrugMatrix - Regimen: Daily Repeat
Type: toxicity, organism-based, Sprague-Dawley
Parameters: regimen Daily Repeat, gender Male, age 6-8 weeks
condition.context: in vivo, iv, 0 mg/kg, 72 h, tissue Plasma, dose level Control, time 3 day, vehicle 100 % SALINE

chemical.string	SODIUM [MEQ/L]
CC1(C)S[C@@H]2[C@H](NC(=O)[C@H](NC(=O)N3CCNC3=O)c3ccccc3)C(=O)N2[C@H]1C(=O)O	144.02
CN(N=O)C(=O)N[C@@H](C=O)[C@@H](O)[C@H](O)[C@H](O)CO	144.42
NCC[C@H](O)C(=O)N[C@@H]1C[C@H](N)[C@@H](O[C@H]2O[C@H](CN)[C@@H](O)[C@H](O)[C@H]2O)[C@H](O)[C@H]1O[C@H]1O[C@H](CO)[C@@H](O)[C@H](N)[C@H]1O	144.2
CC[C@@]1(O)C(=O)OCc2c1cc1n(c2=O)Cc2cc3ccccc3nc2-1	144

* * *

Below, each of the compounds is paired with its reported ALANINE AMINOTRANSFERASE value.
Organism: Rattus norvegicus
experiment: DrugMatrix - Regimen: Daily Repeat
Type: toxicity, organism-based, Sprague-Dawley
Set-up: regimen Daily Repeat, gender Male, age 6-8 weeks
condition.context: in vivo, iv, 0 mg/kg, 72 h, tissue Plasma, dose level Control, time 3 day, vehicle 100 % SALINE

compound	unit.descriptor	ALANINE AMINOTRANSFERASE
CN(N=O)C(=O)N[C@@H](C=O)[C@@H](O)[C@H](O)[C@H](O)CO [STREPTOZOCIN]	u/L	39.67
CC[C@@]1(O)C(=O)OCc2c1cc1n(c2=O)Cc2cc3ccccc3nc2-1 [CAMPTOTHECIN]	u/L	55.5
CC1(C)S[C@@H]2[C@H](NC(=O)[C@H](NC(=O)N3CCNC3=O)c3ccccc3)C(=O)N2[C@H]1C(=O)O [AZLOCILLIN]	u/L	49.33
NCC[C@H](O)C(=O)N[C@@H]1C[C@H](N)[C@@H](O[C@H]2O[C@H](CN)[C@@H](O)[C@H](O)[C@H]2O)[C@H](O)[C@H]1O[C@H]1O[C@H](CO)[C@@H](O)[C@H](N)[C@H]1O [AMIKACIN]	u/L	51.67

* * *

Organism: Rattus norvegicus
experiment: DrugMatrix - Regimen: Daily Repeat
Format: toxicity, organism-based, Sprague-Dawley
Design: regimen Daily Repeat, gender Male, age 6-8 weeks
condition.context: in vivo, po, 1500 mg/kg, 72 h, tissue Blood, route oral GAVAGE, dose level High, time 3 day, vehicle .5 % CMC
reported.property: NEUTROPHIL (%)

                                   compound  reported_property  unit_descriptor  numeric_result
0  NS(=O)(=O)c1cc2c(cc1Cl)NCNS2(=O)=O [HYDROCHLOROTHIAZIDE]         NEUTROPHIL                %              10
1    O=C1CCc2cc(OCCCCc3nnnn3C3CCCCC3)ccc2N1         NEUTROPHIL                %            13.1
2  CCOC(=O)[C@H](CCc1ccccc1)N[C@@H](C)C(=O)N1[C@H](C(=O)O)C[C@@H]2CCC[C@@H]21         NEUTROPHIL                %            6.33
3                        COC(=O)c1ccc(O)cc1         NEUTROPHIL                %              16

* * *

Species: Rattus norvegicus
experiment: DrugMatrix - Regimen: Daily Repeat
Format: toxicity, organism-based, Sprague-Dawley
Set-up: regimen Daily Repeat, gender Male, age 6-8 weeks
condition.context: in vivo, iv, 0 mg/kg, 120 h, tissue Blood, dose level Control, time 5 day, vehicle 100 % SALINE
reported.property: ABSOLUTE EOSINOPHIL (CELLS/uL)

compound	reported.property	numeric.result
CC[C@@]1(O)C(=O)OCc2c1cc1n(c2=O)Cc2cc3ccccc3nc2-1 [CAMPTOTHECIN]	ABSOLUTE EOSINOPHIL	17
CN(N=O)C(=O)N[C@@H](C=O)[C@@H](O)[C@H](O)[C@H](O)CO [STREPTOZOCIN]	ABSOLUTE EOSINOPHIL	158.83
NCC[C@H](O)C(=O)N[C@@H]1C[C@H](N)[C@@H](O[C@H]2O[C@H](CN)[C@@H](O)[C@H](O)[C@H]2O)[C@H](O)[C@H]1O[C@H]1O[C@H](CO)[C@@H](O)[C@H](N)[C@H]1O [AMIKACIN]	ABSOLUTE EOSINOPHIL	0
CC1(C)S[C@@H]2[C@H](NC(=O)[C@H](NC(=O)N3CCNC3=O)c3ccccc3)C(=O)N2[C@H]1C(=O)O [AZLOCILLIN]	ABSOLUTE EOSINOPHIL	48.83

* * *

Below, each of the molecules is paired with its reported TOTAL PROTEIN value.
Species: Rattus norvegicus
experiment: DrugMatrix - Regimen: Daily Repeat
Format: toxicity, organism-based, Sprague-Dawley
Set-up: regimen Daily Repeat, gender Male, age 6-8 weeks
condition.context: in vivo, po, 1500 mg/kg, 72 h, tissue Plasma, route oral GAVAGE, dose level High, time 3 day, vehicle .5 % CMC
reported.property: TOTAL PROTEIN

>>> df
                                   molecule  reported_property     result
0  CCOC(=O)[C@H](CCc1ccccc1)N[C@@H](C)C(=O)N1[C@H](C(=O)O)C[C@@H]2CCC[C@@H]21      TOTAL PROTEIN   5.9 G/DL
1    O=C1CCc2cc(OCCCCc3nnnn3C3CCCCC3)ccc2N1      TOTAL PROTEIN  6.67 G/DL
2  NS(=O)(=O)c1cc2c(cc1Cl)NCNS2(=O)=O [HYDROCHLOROTHIAZIDE]      TOTAL PROTEIN   5.8 G/DL
3                        COC(=O)c1ccc(O)cc1      TOTAL PROTEIN  5.77 G/DL

* * *

Organism: Rattus norvegicus
experiment: DrugMatrix - Regimen: Daily Repeat
Assay type: toxicity, organism-based, Sprague-Dawley
Design: regimen Daily Repeat, gender Male, age 6-8 weeks
condition.context: in vivo, po, 1500 mg/kg, 120 h, tissue Plasma, route oral GAVAGE, dose level High, time 5 day, vehicle .5 % CMC
reported.property: TOTAL PROTEIN (G/DL)

                                   molecule  unit_descriptor  numeric_result
0    O=C1CCc2cc(OCCCCc3nnnn3C3CCCCC3)ccc2N1             G/DL             6.6
1  CCOC(=O)[C@H](CCc1ccccc1)N[C@@H](C)C(=O)N1[C@H](C(=O)O)C[C@@H]2CCC[C@@H]21             G/DL             6.3
2  NS(=O)(=O)c1cc2c(cc1Cl)NCNS2(=O)=O [HYDROCHLOROTHIAZIDE]             G/DL            5.97
3                        COC(=O)c1ccc(O)cc1             G/DL             6.1

* * *

Organism: Rattus norvegicus
experiment: DrugMatrix - Regimen: Daily Repeat
Format: toxicity, organism-based, Sprague-Dawley
Set-up: regimen Daily Repeat, gender Male, age 6-8 weeks
condition.context: in vivo, ip, 160 mg/kg, […], tissue Blood, route intraperitoneal, dose level High, time 14 day, vehicle 100 % SALINE

chemical.string	ABSOLUTE EOSINOPHIL, cells/µL
NCC[C@H](O)C(=O)N[C@@H]1C[C@H](N)[C@@H](O[C@H]2O[C@H](CN)[C@@H](O)[C@H](O)[C@H]2O)[C@H](O)[C@H]1O[C@H]1O[C@H](CO)[C@@H](O)[C@H](N)[C@H]1O	120

* * *

Species on record: Rattus norvegicus
experiment: DrugMatrix - Regimen: Daily Repeat
Type: toxicity, organism-based, Sprague-Dawley
Set-up: regimen Daily Repeat, gender Male, age 6-8 weeks
condition.context: in vivo, po, 10 mg/kg, 120 h, tissue Plasma, route oral GAVAGE, dose level Low, time 5 day, vehicle .5 % CMC
reported.property: POTASSIUM

                                   compound      result
0  NS(=O)(=O)c1cc2c(cc1Cl)NCNS2(=O)=O [HYDROCHLOROTHIAZIDE]  6.59 MEQ/L
1  O=C1CN=C(c2ccccc2)c2cc([N+](=O)[O-])ccc2N1 [NITRAZEPAM]  6.92 MEQ/L
2  COc1c(C)c2c(c(O)c1C/C=C(\C)CCC(=O)OCCN1CCOCC1)C(=O)OC2 [MYCOPHENOLATE MOFETIL]  6.19 MEQ/L
3  CC(=O)O[C@]1(C(C)=O)CC[C@H]2[C@@H]3C=C(Cl)C4=CC(=O)CC[C@]4(C)[C@H]3CC[C@@]21C [CHLORMADINONE ACETATE]  7.15 MEQ/L
